Measured values drawn from a melting point compilation (Tetko et al.; mined from patent text by program, amines drawn as free bases though some values may be those of a salt) for this set.

Assay endpoint: melting point

compound=CNc1nc(-c2cccc(C=O)c2)c2cc(OC)c(OC)cc2n1 reading="110 to 112 °C"

GET /value?item= N#Cc1ccc2c(c1)C(O)CCCO2 (stereo unspecified) &field=melting point returns 85 to 86.5 °C

The reported melting point of the compound c1ccc2c(c1)cc1cnc(Nc3ccc(N4CCOCC4)cc3)nn12 was 205 to 210 °C

Quick note, melting point for CCCn1nnn(-c2ccc(N3CCN(c4ccc(OC)cc4)CC3)cc2)c1=O landed at 190 °C

The compound CC(=O)NCc1c(C)cc(CCl)cc1C showed melting point equal to 193 to 194 °C

Measured melting point of CCOc1ccc(-c2ccc3c(c2)C=C(C(=O)O)CCN3C=O)cc1F : 220 to 222 °C

---

Measured melting point by item

Use the examples below as a reference point.
compound="O=c1[nH]c(=O)n(C2CC(O)C(COC3(c4ccccc4)c4ccccc4Oc4ccccc43)O2)cc1I (stereo unspecified)" reading="200 to 202 °C"
compound=CC12CC(C)(C1)C(=O)N(C(C)(C)C)C2=O reading="65 to 65.5 °C"
compound=O=C(Nc1c(Cl)cccc1Cl)c1cccc2cccnc12 reading="168 to 169 °C"
compound=Cc1nn(-c2ccccn2)c2nc3ccccc3c(C)c12 reading="157 to 159 °C"
compound=CS(=O)(=O)c1ccc(-c2oc(C3CCCCC3)nc2-c2ccc(F)cc2)cc1 reading="127 to 128 °C"
compound=O=c1oc2c(Cl)cccc2c(O)c1-c1ccccc1 reading="245 °C"
compound=Cc1cccc(C)c1N1C(=O)C(=O)N(C)C1=S reading="144 to 146 °C"
compound=NC(C=Cc1cccc(Cl)c1)=NO reading="195 to 197 °C"
compound=c1ccc(Oc2ccc(OCCCn3ccnc3)cc2)cc1 reading="54.5 to 55.5 °C"
compound=Cc1nc(CNC=O)ccc1OCc1ccccc1 reading="67 to 68 °C"

Summary for this compound, Oc1cc2c3ccc(O)c(O)c3n(Cc3ccc(C(F)(F)F)cc3)c2cc1O : melting point is 266 to 270 °C

---

Assay endpoint: melting point

Examples with answers:
compound="Cc1cc(C)cc(Nc2cccc3c2OC(CN)C3)c1 (stereo not given)" reading="> 250 °C"
compound=CC(C)(C(=O)O)C1CCN(Cc2ccccc2)CC1 reading="195 °C"
compound=O[C@H](COc1cccc2[nH]ccc12)CN1CCC(c2c[nH]c3c(Cl)c(Cl)ccc23)CC1 reading="192 to 197 °C"
compound=CCCc1c(C(=O)OCC)[nH]c(CC)c1C reading="73 to 74 °C"
compound=CCC(=O)Nc1ccc(N)c(=O)cc1 reading="203 to 205 °C"
compound=C#CCN(C(=O)CO)c1c(C)nc(N(C)C)nc1C reading="128 to 130 °C"
compound=COC(=O)CCC(=O)OC(=C1C(=O)N(C(N)=O)c2cc(Cl)c(F)cc21)c1cccs1 reading="179 to 183 °C"
compound=CC(=O)Oc1cc(C)cc(C(=O)Cl)c1C reading="52 to 54 °C"
compound=COc1cc(N2CCOCC2)ccc1Nc1ncc2cc3ccccc3n2n1 reading="169 to 173 °C"

Record COC(=O)CCc1ccc(CNC(=O)[C@@H](CCCNC(N)=N[N+](=O)[O-])NC(=O)C(c2ccccc2)c2ccccc2)cc1 , field melting point: 159 to 161 °C

---

Assay endpoint: melting point

Answered examples (6):
compound=Fc1ccc(C2(c3ccc(F)cc3)CNC(c3cnccn3)=N2)cc1 reading="144 to 146 °C"
compound=CN(C)CCCCCCSc1ncccc1C(=O)c1cccs1 reading="69 to 71 °C"
compound="Cc1ccc(C2CC3C=CC2C3)n1CCC1CC(O)CC(=O)O1 (stereo unspecified)" reading="125 to 126 °C"
compound="COC1CCCC2=C(O)C3=C(C(=O)c4ccc(C(C)=O)cc4C3)C(O)C21 (stereo unspecified)" reading="223 to 226 °C"
compound=CC(C)(C)NC(=O)N1CCn2c(Br)c(-c3cccc(F)c3)c(C(N)=O)c2C1 reading="184 to 189 °C"
compound=CCc1cc2cc(O)ccc2c(Oc2ccc(/C=C/C(=O)O)cc2)c1-c1ccccc1 reading="188 to 190 °C"

GET /value?item= COc1cc2ncnc(N3CCCc4ccccc43)c2cc1SC &field=melting point returns 193 to 196 °C

Sample COc1ccc(NC(=O)c2ccc(N)cc2NC(=O)c2ccc(C(C)(C)C)cc2)cc1 ; melting point observed: 137 to 140 °C

// sample O=[N+]([O-])c1cc(CO)cc([N+](=O)[O-])c1-c1ccc(O)cc1 , its melting point was 156 to 158 °C

Form field melting point, entry O=C(Nc1ccc2[nH]c(C(F)(F)F)nc2c1)NC12CC3CC(CC(C3)C1)C2 : 189 to 192 °C

CCOc1c(CO)cnc2c1c(C)nn2CC has a reported melting point of 85 to 86 °C

Lab book: melting point of COc1ccc(C(O)(c2ccc3c(c2)c(-c2cccc(Cl)c2)nc2nnnn23)c2cncn2C)cc1 (stereo unspecified) noted as 200 °C

For this compound ( NCCCCn1cnc2ccccc21 ), measured melting point is 119 to 123 °C

get_value(item= CCCc1[nH]c2ccc(OCc3ccc4ccccc4n3)cc2c1CC , readout=melting point) returns 91 °C

melting point reading for CC(C)(C)C(=O)Nc1c[nH]nc1C(=O)NCCC#N : 165 to 166 °C

---

Below, each entry is listed with its recorded melting point.

In the examples that follow, each entry is paired with its recorded melting point.
compound=Cn1c(-c2ccc(Br)cc2)c(OCCOc2ccc(C=C3SC(=O)NC3=O)cc2)c(=O)c2ccccc21 assay_endpoint="melting point" reading="151 to 154 °C"
compound=C=C1C(=C)C2OC1c1cc3c(OC)ccc(OC)c3cc12 assay_endpoint="melting point" reading="205 to 206 °C"
compound="CC(C)Oc1c(C(=O)O)sc2c1CS(=O)CC2 (stereo unspecified)" assay_endpoint="melting point" reading="192 to 193 °C"
compound=CC(=O)N1CCc2ccc(C(=O)NO)cc2C1 assay_endpoint="melting point" reading="177 to 181 °C"

Form field melting point, entry CC(C)(CNCCCCCCNCC(C)(C)[N+](=O)[O-])[N+](=O)[O-] : 26 to 27 °C

Summary for this compound, CSc1nc2ccccc2n1C1CCNCC1 : melting point is 114 to 115 °C

---

Parameter melting point: see the listing below.

compound=O=C1c2ccccc2-c2c1c(Cl)nc1ccc(Br)cc21 assay_endpoint="melting point" reading="304 to 306 °C"
compound=CCOC(=O)C(=O)CC(=O)c1cccc(Cl)c1Cl assay_endpoint="melting point" reading="57 to 58 °C"
compound="CC(=O)OC1(C(C)=O)C(C)CC2C3CCC4=CC(=O)C=CC4(C)C3=CCC21C (stereo not given)" assay_endpoint="melting point" reading="230 to 233 °C"
compound=CSC1=NC2=NC3=C(CN(Cc4ccccc4)CC3=O)CN2N1 assay_endpoint="melting point" reading="245 to 247 °C"
compound=COC(=O)c1ccccc1-c1cc(-c2cccc(C(F)(F)F)c2)no1 assay_endpoint="melting point" reading="46 to 48 °C"
compound="CCC(O)(c1ccc(F)cc1)c1ccc(OCCCN2CCN(Cc3ccccc3)CC2)cc1 (stereo not given)" assay_endpoint="melting point" reading="119 to 121 °C"
compound="NCC1Cc2cc(-c3ccccc3)cc(-c3ccccc3Cl)c2O1 (stereo not given)" assay_endpoint="melting point" reading="> 250 °C"
compound=CCc1nc2c(O)c(CN(C)C)c(C(=O)N(C)C)cc2n1C assay_endpoint="melting point" reading="183 to 185 °C"
compound=Cc1ccc(C(=O)c2ccc([N+](=O)[O-])cc2)cc1 assay_endpoint="melting point" reading="122 to 123 °C"

Please examine the following record next.
What the record says about Cc1cc(C2(C(F)(F)F)CC(c3ccc(Cl)cc3)=NO2)ccc1N (stereo not given) : melting point is 118 to 119 °C

---

Returns: string. Value is Condition met if measured melting point is below 100 °C, and Condition not met if it is greater than or equal to it.

molecule=S=C1NC2(CCCCC2)NC12CCCCC2 class_assignment="Condition not met"

Is it true that melting point reported for CC(C)(O)c1ccc(-c2ccc(C(C)(C)O)cc2)cc1 is less than 100 °C?
Condition not met

Identify whether the molecule CC(=O)CC(=O)C=Cc1ccccc1 records melting point below 100 °C.
Condition met

Below 100 °C on melting point? Entry CCOc1cc(-c2cc(C(F)(F)F)n3ncc(-c4nc(-c5ccc(N)nc5)no4)c3n2)ccc1C(F)(F)F
Condition not met

Threshold test, melting point < 100 °C: CN1CCC(NC(c2cccc(O)c2)c2nc3ccccc3[nH]2)CC1 (configuration not stated)
Condition not met

In the record for CC(C)c1ccc(S(=O)(=O)N2CCCC2c2ccc(F)cc2)cc1 (racemic) , is melting point less than 100 °C?
Condition met

Find out if reported melting point for CSC(=S)C1(c2ccccn2)CCCS1 (configuration not stated) is less than 100 °C
Condition met
